System Under Test: Gamma-secretase
Test Details: Inhibition of gamma secretase in human H4 cells assessed as reduction in amyloid beta40 level by ELISA
Format: cell-based
What IC50 was measured for each of the following?
Answers are plain numbers, in nM.

The cases that follow already have their IC50 on record.
chemical_string=C[C@H](CCOC(=O)NCCCn1ccnc1)N(c1cc(Cl)ccc1CO)S(=O)(=O)c1ccc(Cl)cc1 measured_parameter=IC50 units_symbol=nM readout_number=7.7
chemical_string=CNC(=O)OC[C@@H](C)N(c1cc(Cl)ccc1CO)S(=O)(=O)c1ccc(Cl)cc1 measured_parameter=IC50 units_symbol=nM readout_number=15
chemical_string=C[C@H](COC(=O)NCCCn1ccnc1)N(c1cc(Cl)ccc1Cl)S(=O)(=O)c1ccc(Cl)cc1 measured_parameter=IC50 units_symbol=nM readout_number=0.41

Here is another compound to look at.
Q) Item CCN(CC)C(=O)OC[C@@H](C)N(c1cc(Cl)ccc1CO)S(=O)(=O)c1ccc(Cl)cc1 has what recorded IC50?
A) 18
